All values here come from ChEMBL document CHEMBL1961873.

target: Tyrosine-protein kinase CSK (Homo sapiens) (UniProt P41240); conditions: at 1 µM;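 further: each value is an averaged inhibition reading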
Sequence (P41240 2-450 limits assumed): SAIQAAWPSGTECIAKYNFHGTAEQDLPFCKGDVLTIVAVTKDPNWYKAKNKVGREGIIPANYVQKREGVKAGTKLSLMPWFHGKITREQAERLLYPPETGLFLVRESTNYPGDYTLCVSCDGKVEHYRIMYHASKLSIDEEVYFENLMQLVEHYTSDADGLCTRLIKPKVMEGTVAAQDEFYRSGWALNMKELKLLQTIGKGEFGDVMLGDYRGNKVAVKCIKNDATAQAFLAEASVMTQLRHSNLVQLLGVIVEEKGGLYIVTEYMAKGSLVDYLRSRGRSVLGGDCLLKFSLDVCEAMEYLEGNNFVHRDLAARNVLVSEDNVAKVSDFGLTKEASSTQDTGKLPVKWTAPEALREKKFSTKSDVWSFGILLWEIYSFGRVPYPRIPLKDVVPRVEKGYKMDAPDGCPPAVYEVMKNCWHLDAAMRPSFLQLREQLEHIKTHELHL
Hi there, I'd appreciate the recorded inhibition for every entry that follows.
Numbers only, in %.

Sample answers from the record:
# mol.smiles, inhibition [%]
rows = [
    ("CCn1c(-c2nonc2N)nc2c(C#CC(C)(C)O)nc(CN3CCCC3)cc21", -4.12),
    ("O=C1NC(=O)C(c2ccccc2Cl)=C1Nc1cccc(O)c1", 3.08),
    ("Cc1ccc(NC(=O)c2ccnc(N3CCCC3)c2)cc1-c1ccc(C(=O)NCC2CC2)cc1", -0.29),
]

Each of the following entries comes with a recorded value; kindly state inhibition for each.
1. COc1cc2ncn(-c3cc(OCc4ccccc4Cl)c(C(N)=O)s3)c2cc1OC
2. [O-][S+]1CCN(Cc2ccc(-c3ccc4ncnc(Nc5ccc(OCc6ccccc6)c(F)c5)c4c3)o2)CC1
3. COC(=O)Nc1nc2cc(Oc3cccc(NC(=O)Nc4cc(C(F)(F)F)ccc4F)c3)ccc2[nH]1
4. NS(=O)(=O)c1cccc(-c2ccc3c(NC(=O)C4CC4)n[nH]c3c2)c1
5. NCc1ccc(-c2nc(-c3ccc(Cl)c(O)c3)c(-c3ccncc3)[nH]2)cc1
6. CS(=O)(=O)Nc1ccc(N/C=C2\C(=O)Nc3ccccc32)cc1
7. COc1cc2ncn(-c3cc(O[C@@H](C)c4ccccc4Cl)c(C(N)=O)s3)c2cc1OC

// result
1: 4.61; 2: -3.52; 3: 2.36; 4: -3.46; 5: 7.83; 6: -6.43; 7: 5.68
